Reference source: ChEMBL document CHEMBL1153070

For each of the compounds below, state its IC50.
system: SW-620; experiment: Cytostatic activity against human SW620 cells; format: functional, cell-based

COc1cc(NC(C)CCCNC(=O)N(CCO)CCO)c2ncccc2c1 (stereo not drawn)	> 100 µM

Below are 3 compounds. Give each one its IC50.
1. COc1cc(NC(C)CCCNC(=O)NCCCCCO)c2ncccc2c1 (stereo not drawn)
2. COC(=O)NCCCC(C)Nc1cc(OC)cc2cccnc12 (stereo not drawn)
3. COc1cc(NC(C)CCCNC(=O)NOCc2ccccc2)c2ncccc2c1 (stereo not drawn)

1: 0.2 µM; 2: > 100 µM; 3: 20 µM

Below are 2 compounds. Give each one its IC50.
1. COc1cc(NC(C)CCCN)c2ncccc2c1 (stereo not drawn)
2. COc1cc(N2C(=O)NCCCC2C)c2ncccc2c1 (stereo not drawn)

≥ 100 µM
> 100 µM

Below are 7 compounds. Give each one its IC50.
1. NC(=O)NO [HYDROXYUREA]
2. CCOC(=O)NCCCC(C)Nc1cc(OC)cc2cccnc12 (stereo not drawn)
3. COc1cc(NC(C)CCCNC(=O)NCCCO)c2ncccc2c1 (stereo not drawn)
4. COc1cc(NC(C)CCCNC(=O)NO)c2ncccc2c1 (stereo not drawn)
5. COc1cc(NC(C)CCCNC(=O)NCCNC(=O)NCCCC(C)Nc2cc(OC)cc3cccnc23)c2ncccc2c1 (stereo not drawn)
6. COc1cc(NC(C)CCCNC(=O)NCCO)c2ncccc2c1 (stereo not drawn)
7. COc1cc(NC(C)CCCNC(=O)NC(CO)(CO)CO)c2ncccc2c1 (stereo not drawn)

> 100 µM
45 µM
> 100 µM
35 µM
17 µM
> 100 µM
> 100 µM

----------
system: Glycine max; assay: Inhibition of soybean lipoxygenase
Quantity Measured: INH (µM)
One number for each entry, in µM.

Sample answers from the record:
COc1cc(N2C(=O)NCCCC2C)c2ncccc2c1 (stereo unspecified)	72
COc1cc(NC(C)CCCNC(=O)NCCCCCO)c2ncccc2c1 (stereo unspecified)	310
COc1cc(NC(C)CCCNC(=O)NOCc2ccccc2)c2ncccc2c1 (stereo unspecified)	230
COc1cc(NC(C)CCCNC(=O)NCCO)c2ncccc2c1 (stereo unspecified)	315
COc1cc(NC(C)CCCNC(=O)NO)c2ncccc2c1 (stereo unspecified)	83

# get_value(readout= INH, system= Glycine max) for COc1cc(NC(C)CCCNC(=O)N(CCO)CCO)c2ncccc2c1 (stereo unspecified)
86

----------
system: Glycine max; test: Inhibition of soybean lipoxygenase
Quantity Measured: INH (µM)
Give bare numbers, in µM.

COc1cc(NC(C)CCCNC(=O)NC2CCCC2)c2ncccc2c1 (configuration not stated)	220

Below are 6 compounds. Give each one its INH.
1. COc1cc(NC(C)CCCN)c2ncccc2c1 (configuration not stated)
2. COc1cc(NC(C)CCCNC(=O)N(C2CCCCC2)C2CCCCC2)c2ncccc2c1 (configuration not stated)
3. COc1cc(NC(C)CCCNC(=O)n2nnc3ccccc32)c2ncccc2c1 (configuration not stated) [PRIMAQUINE BENZOTRIAZOLIDE]
4. O=C(O)/C=C/c1ccc(O)c(O)c1
5. COc1cc(NC(C)CCCNC(=O)NCCCO)c2ncccc2c1 (configuration not stated)
6. COc1cc(NC(C)CCCNC(=O)NCCNC(=O)NCCCC(C)Nc2cc(OC)cc3cccnc23)c2ncccc2c1 (configuration not stated)

74
320
260
600
230
62

----------
For each of the compounds below, state its pIC50.
tested on: MCF7; test: Cytostatic activity against human MCF7 cells; assay type: functional, cell-based
Give bare numbers, as −log10 of the molar value.

CCOC(=O)NCCCC(C)Nc1cc(OC)cc2cccnc12 (stereo not drawn)	4.59
COc1cc(NC(C)CCCNC(=O)NCCNC(=O)NCCCC(C)Nc2cc(OC)cc3cccnc23)c2ncccc2c1 (stereo not drawn)	4.51
COc1cc(NC(C)CCCNC(=O)NOCc2ccccc2)c2ncccc2c1 (stereo not drawn)	5.05

Below are 7 compounds. Give each one its pIC50.
1. COc1cc(NC(C)CCCNC(=O)N(CCO)CCO)c2ncccc2c1 (stereo not drawn)
2. COc1cc(NC(C)CCCNC(=O)NCCCCCO)c2ncccc2c1 (stereo not drawn)
3. COc1cc(NC(C)CCCN)c2ncccc2c1 (stereo not drawn)
4. COc1cc(NC(C)CCCNC(=O)NO)c2ncccc2c1 (stereo not drawn)
5. COc1cc(NC(C)CCCNC(=O)NC(CO)(CO)CO)c2ncccc2c1 (stereo not drawn)
6. COc1cc(NC(C)CCCNC(=O)NCCO)c2ncccc2c1 (stereo not drawn)
7. COc1cc(NC(C)CCCNC(=O)NCCCO)c2ncccc2c1 (stereo not drawn)

1. 4.44
2. 4.36
3. 4.55
4. 4.36
5. 4.62
6. 4.60
7. 4.51

----------
For each of the compounds below, state its pIC50.
tested on: MCF7; assay: Cytostatic activity against human MCF7 cells; type: functional, cell-based
pIC50: −log10 of the molar value.

Sample answers from the record:
NC(=O)NO [HYDROXYUREA]	< 4.00
COC(=O)NCCCC(C)Nc1cc(OC)cc2cccnc12 (stereo not drawn)	< 4.00

Would you mind telling me what pIC50 value was observed for COc1cc(N2C(=O)NCCCC2C)c2ncccc2c1 (stereo not drawn) ?
< 4.00
